- procedureDetails: NCI Yeast Anticancer Drug Screen. Data for the rad50 strain (AID 155);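 further: 0% = growth of vehicle-only cultures of the same strain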
- experimentalContext: S. cerevisiae rad50 strain growth inhibition; at 5.0 µM (retest, dose inferred, filed as 0.5); stronger effect = higher value
The panel holds about 79,000 compounds, 15% with a hit somewhere; the sample as a whole holds those more often. Activity calls are given as the source filed them. No stated cut-off is given here; in the data, active means growth inhibition above about 70%; inactive means the rest.
Below: a set of entries, each annotated with reported growth inhibition.

Some compounds with recorded growth inhibition:
compound	growth inhibition
Cc1cc(C)c(Cc2cc(C(C)(C)C)cc(C)c2O)cc1Cc1cc(C(C)(C)C)cc(C)c1O	-2% (inactive)
O=C(CCC(NC(=O)OCc1ccccc1)C(=O)OCc1ccccc1)NC(CSCc1ccccc1)C(=O)NCC(=O)Oc1c(Cl)c(Cl)c(Cl)c(Cl)c1Cl (configuration not stated)	8% (inactive)
CCn1c2ccccc2n2c(=O)cc(-c3ccccc3)c(C#N)c12	7% (inactive)
Cn1c(=O)c2c3oc(=O)cc(O)c3c(=O)n3c4ccccc4n(c1=O)c23	38% (inactive)
C/C(=N\NC(N)=S)C(CN1CCCCC1)C(C1=C(O)c2ccccc2OC1)c1ccccc1 (configuration not stated)	10% (inactive)
Nc1ccc(S(=O)(=O)C23CC4CC(CC(C4)C2)C3)cc1	-2% (inactive)

For CCOC(=O)c1cnccc1CC1(C#N)c2ccccc2C=CN1C(=O)c1ccccc1 (configuration not stated) the compound record lists growth inhibition as 5% (inactive)

For NC(=O)CCSC(=S)N1CCOCC1 the compound record lists growth inhibition as -2% (inactive)

// sample O=C(O)c1ccc(C(O)(c2ccccc2)c2ccccc2)cc1 , its growth inhibition was -9% (inactive)

Entry CCCn1cnc2c(SCc3ccc(Cl)cc3Cl)nc(N)nc21 , growth inhibition reported as 12% (inactive)

The reported value for N#CCc1nc(Cl)cc(Cl)n1 in terms of growth inhibition is 2% (inactive)

GET /value?item= Cc1cc(S(=O)(=O)Nc2nc(N)nc(N(C)C)n2)c(SC(C(=O)O)c2ccccc2)cc1Cl (configuration not stated) &field=growth inhibition returns -11% (inactive)

###

- procedureDetails: NCI Yeast Anticancer Drug Screen. Data for the cln2 rad14 strain (AID 165);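 further: 0% = growth equal to vehicle treated cultures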
- experimentalContext: S. cerevisiae cln2 rad14 strain, at 50.0 µM (retest, dose inferred, filed as 5.0), stronger effect = higher value
About 79,000 compounds went through this panel and 15% of them were active in at least one assay; those are over-represented in the sample as a whole.
Recorded growth inhibition for the following molecules
// return numeric value only (unit: %, not printed)

For orientation, consider the following solved cases.
molecule	growth inhibition (%)
CC12CC(Sc3ccccc3N1)c1ccccc1O2 (stereo not drawn)	40
O=C(C[n+]1ccccc1)c1ccc2ccc3ccc(Cl)cc3c2c1	39
CCCCOc1ccc(-c2c(COC(=O)NC)c(COC(=O)NC)c(C)n2C)cc1	85
CC(C)NC(=O)OCc1c2c(n(C)c1COC(=O)NC(C)C)-c1ccccc1CC2	97
O=C(O)c1nc2cc(C(F)(F)F)ccc2nc1Nc1ccc(Cl)c(Cl)c1	85

growth inhibition measured on C/C(O)=C(/C=N\C(=S)Nc1ccc(Cl)c(Cl)c1)C(=O)Nc1ccccc1C = 34

The molecule listed as [O-][n+]1ccc(Br)c(/C=C/c2ccccc2)c1 has a reported growth inhibition of 9

Briefly, growth inhibition measured for Cn1c(CN(Cc2nc3ccccc3n2C)Cc2nc3ccccc3n2C)nc2ccccc21 : 89
